- measurement_target: CDK4 (Homo sapiens, UniProt P11802+Q16531)
- Sequence (P11802 whole entry): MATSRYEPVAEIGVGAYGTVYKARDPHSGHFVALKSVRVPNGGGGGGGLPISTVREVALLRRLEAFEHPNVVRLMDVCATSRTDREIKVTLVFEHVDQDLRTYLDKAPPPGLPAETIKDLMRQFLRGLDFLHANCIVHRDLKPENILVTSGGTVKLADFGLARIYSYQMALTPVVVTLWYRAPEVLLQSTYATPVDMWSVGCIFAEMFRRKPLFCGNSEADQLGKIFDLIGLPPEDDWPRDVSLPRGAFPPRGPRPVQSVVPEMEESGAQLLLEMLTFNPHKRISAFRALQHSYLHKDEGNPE
- Sequence (P24385 whole entry partner): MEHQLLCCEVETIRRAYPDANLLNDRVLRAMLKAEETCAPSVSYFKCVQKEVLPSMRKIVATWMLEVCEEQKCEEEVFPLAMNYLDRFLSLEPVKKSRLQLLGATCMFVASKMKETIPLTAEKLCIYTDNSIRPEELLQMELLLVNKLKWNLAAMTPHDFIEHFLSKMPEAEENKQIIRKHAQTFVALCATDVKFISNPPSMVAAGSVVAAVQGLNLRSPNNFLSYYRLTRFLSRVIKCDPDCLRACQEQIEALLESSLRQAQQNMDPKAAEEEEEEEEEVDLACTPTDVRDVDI
- Sequence (Q16531 2-1140 limits assumed): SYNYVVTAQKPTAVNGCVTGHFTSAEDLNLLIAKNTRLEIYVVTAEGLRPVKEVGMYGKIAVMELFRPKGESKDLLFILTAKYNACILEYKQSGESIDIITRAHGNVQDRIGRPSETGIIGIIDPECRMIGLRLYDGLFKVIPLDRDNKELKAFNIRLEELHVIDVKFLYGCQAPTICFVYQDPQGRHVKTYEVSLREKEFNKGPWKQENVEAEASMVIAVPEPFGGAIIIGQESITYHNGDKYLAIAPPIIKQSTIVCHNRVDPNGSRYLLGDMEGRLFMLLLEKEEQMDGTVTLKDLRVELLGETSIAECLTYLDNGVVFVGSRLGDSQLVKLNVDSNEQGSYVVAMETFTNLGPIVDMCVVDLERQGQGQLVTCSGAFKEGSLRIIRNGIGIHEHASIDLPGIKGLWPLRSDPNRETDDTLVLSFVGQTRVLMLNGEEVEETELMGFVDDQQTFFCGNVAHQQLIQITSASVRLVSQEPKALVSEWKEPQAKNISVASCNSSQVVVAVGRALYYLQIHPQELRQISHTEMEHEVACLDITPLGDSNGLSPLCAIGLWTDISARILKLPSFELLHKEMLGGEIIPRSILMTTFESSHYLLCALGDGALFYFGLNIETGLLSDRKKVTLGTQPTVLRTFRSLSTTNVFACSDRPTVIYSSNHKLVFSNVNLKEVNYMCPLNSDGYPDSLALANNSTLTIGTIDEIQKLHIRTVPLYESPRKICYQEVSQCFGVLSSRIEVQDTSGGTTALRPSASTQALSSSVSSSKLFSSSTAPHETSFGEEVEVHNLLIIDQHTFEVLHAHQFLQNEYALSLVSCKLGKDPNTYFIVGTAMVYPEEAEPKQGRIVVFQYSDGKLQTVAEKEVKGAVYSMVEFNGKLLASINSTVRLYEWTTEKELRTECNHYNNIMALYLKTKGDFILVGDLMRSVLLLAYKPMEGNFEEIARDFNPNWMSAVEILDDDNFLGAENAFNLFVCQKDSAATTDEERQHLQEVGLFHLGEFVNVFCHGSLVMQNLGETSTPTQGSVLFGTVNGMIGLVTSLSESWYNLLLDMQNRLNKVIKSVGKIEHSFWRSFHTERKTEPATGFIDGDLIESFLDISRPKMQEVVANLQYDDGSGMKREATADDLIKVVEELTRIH
- test_method_notes: HiBiT detection of HiBiT-tagged CDK4 protein level in MCF7 cells, 16 hours (Table 8)
- Type: cell-based
- Design: expressed in transfected cells; host or cells: MCF7
- experimental_parameters: 100 nM, MCF7 cells stably expressing HiBiT tagged target proteins, read-out: % CDK4 Relative Level (100 nM)
Could you please report measured activity at 0.1 µM for the items listed next?

input: Quick check: activity at 0.1 µM of CNc1ccc(C(=O)Nc2ccc(N(C)C)nn2)c(NCCOCCOCCC(=O)N2CCN(c3ccc(Nc4ncc5cc(C(=O)N(C)C)n(C6CCCC6)c5n4)nc3)CC2)n1 ?
output: > 85%

input: Next molecule up: CC(=O)c1c(C)c2cnc(Nc3ccc(CN4CCN(C(C)C(=O)N5CCC6(CCC(Nc7nc(NC(C)C)ccc7C(=O)Nc7ccc(N(C)C)nn7)C6)C5)CC4)cn3)nc2n(C2CCCC2)c1=O (stereo not shown)
output: > 85%

input: What would you report for CNc1ccc(C(=O)Nc2ccc(N(C)C)nn2)c(NCCCCCNC(=O)CN2CCN(Cc3ccc(Nc4ncc(F)c(-c5cc(F)c6nc(C)n(C(C)C)c6c5)n4)nc3)CC2)n1 ?
output: > 85%

input: And CNc1ccc(C(=O)Nc2ccc(N(C)C)nn2)c(NCCOCCNC(=O)CN2CCN(c3ccc(Nc4ncc5cc6n(c5n4)C4(CCCCC4)CNC6=O)nc3)CC2)n1 ?
output: > 85%

input: # repeat for CNc1ccc(C(=O)Nc2ccc(N(C)C)nn2)c(NCCOCCC(=O)N2CCN(c3ccc(Nc4ncc(F)c(-c5cc(F)c6nc(C)n(C(C)C)c6c5)n4)nc3)CC2)n1
output: > 85%

input: Same thing, different molecule: CC(=O)c1c(C)c2cnc(Nc3ccc(CN4CCN(CC(=O)N5CCC6(CCC(Nc7nc(NC(C)C)ccc7C(=O)Nc7ccc(N(C)C)nn7)C6)C5)CC4)cn3)nc2n(C2CCCC2)c1=O (stereo not shown)
output: 55 to 85%

input: Next molecule: CC(=O)c1c(C)c2cnc(Nc3ccc(N4CCN(CCC(=O)NC56CC(Nc7nc(NC(C)C)ccc7C(=O)Nc7ccc(N(C)C)nn7)(C5)C6)CC4)cn3)nc2n(C2CCCC2)c1=O
output: 55 to 85%

input: Here is the next molecule: CNc1ccc(C(=O)Nc2ccc(N(C)C)nn2)c(NCCC(=O)N2CCN(c3ccc(Nc4ncc5cc6n(c5n4)C4(CCCCC4)CNC6=O)nc3)CC2)n1
output: > 85%

input: Try this molecule next: CNc1ccc(C(=O)Nc2ccc(N(C)C)nn2)c(NCCCNC(=O)CN2CCN(c3ccc(Nc4ncc(F)c(-c5cc(F)c6nc(C)n(C(C)C)c6c5)n4)nc3)CC2)n1
output: > 85%

input: Now consider CC(=O)c1c(C)c2cnc(Nc3ccc(N4CCN(CCNC(=O)C56CC(Nc7nc(NC(C)C)ccc7C(=O)Nc7ccc(N(C)C)nn7)(C5)C6)CC4)cn3)nc2n(C2CCCC2)c1=O and answer again.
output: > 85%

input: And the next one, CNc1ccc(C(=O)Nc2ccc(N(C)C)nn2)c(NCCCCNC(=O)CN2CCN(c3ccc(Nc4ncc5cc(C(=O)N(C)C)n(C6CCCC6)c5n4)nc3)CC2)n1 ?
output: 55 to 85%

input: And then CNc1ccc(C(=O)Nc2ccc(N(C)C)nn2)c(NCCC(=O)NC2CCC(Nc3ncc4ccc(=O)n(C5CCCC5)c4n3)CC2)n1 (stereo not shown) , what is it?
output: > 85%

input: Okay, and CC(=O)c1c(C)c2cnc(Nc3ccc(CN4CCN(CC(=O)NC5CC6(C5)CC(Nc5nc(NC(C)C)ccc5C(=O)Nc5cc7n(n5)CCC7)C6)CC4)cn3)nc2n(C2CCCC2)c1=O (stereo not shown) ?
output: 55 to 85%

input: Then this molecule: CC(=O)c1c(C)c2cnc(Nc3ccc(CC4CCN(CC(=O)NC5CC6(C5)CC(Nc5nc(NC(C)C)ccc5C(=O)Nc5ccc(N(C)C)nn5)C6)CC4)cn3)nc2n(C2CCCC2)c1=O (stereo not shown)
output: 55 to 85%

input: // next record CNc1ccc(C(=O)Nc2ccc(N(C)C)nn2)c(NCCCCCCC(=O)NC2CCC(Nc3ncc4ccc(=O)n(C5CCCC5)c4n3)CC2)n1 (stereo not shown)
output: > 85%

input: Next entry: CNc1ccc(C(=O)Nc2ccc(N(C)C)nn2)c(NCCCCCCC(=O)N2CCN(c3ccc(Nc4ncc5cc(C(=O)N(C)C)n(C6CCCC6)c5n4)nc3)CC2)n1
output: 55 to 85%

input: Try this molecule too: CNc1ccc(C(=O)Nc2ccc(N(C)C)nn2)c(NCCOCCNC(=O)CN2CCN(c3ccc(Nc4ncc5cc(C(=O)N(C)C)n(C6CCCC6)c5n4)nc3)CC2)n1
output: > 85%

input: Also CNc1ccc(C(=O)Nc2ccc(N(C)C)nn2)c(NCCCCCCCNC(=O)CN2CCN(c3ccc(Nc4ncc(F)c(-c5cc(F)c6nc(C)n(C(C)C)c6c5)n4)nc3)CC2)n1 ?
output: 55 to 85%

input: Next: CNc1ccc(C(=O)Nc2ccc(N(C)C)nn2)c(NCCOCCC(=O)NC2CCC3(CC2)CC(Nc2ncc4ccc(=O)n(C5CCCC5)c4n2)C3)n1 (stereo not shown)
output: > 85%

input: Try this molecule too: CNc1ccc(C(=O)Nc2ccc(N(C)C)nn2)c(NCCCCNC(=O)CN2CCN(Cc3ccc(Nc4ncc(F)c(-c5cc(F)c6nc(C)n(C(C)C)c6c5)n4)nc3)CC2)n1
output: > 85%

input: What about this molecule? CNc1ccc(C(=O)Nc2ccc(N(C)C)nn2)c(NCCCCCCCCNC(=O)CN2CCN(c3ccc(Nc4ncc(F)c(-c5cc(F)c6nc(C)n(C(C)C)c6c5)n4)nc3)CC2)n1
output: > 85%

input: Same for CC(=O)c1c(C)c2cnc(Nc3ccc(C(C)N4CCN(CC(=O)N5CCC6(CCC(Nc7nc(NC(C)C)ccc7C(=O)Nc7ccc(N(C)C)nn7)C6)C5)CC4)cn3)nc2n(C2CCCC2)c1=O (stereo not shown)
output: 55 to 85%
